Assay: Measurement of the AB-permeability in a TC-7 based assay-system
Type: in vitro ADME
Settings: human, Caco-2; values in text
Positions of bridges follow the written chain, without caps; N, C: chain ends. Non-standard residues stand in square brackets, D forms with d. Residues, ends and D or L forms follow the SMILES beside them. Hyp = O=C(O)[C@@H]1C[C@@H](O)CN1; dCha = N[C@H](CC1CCCCC1)C(=O)O; Orn = NCCC[C@H](N)C(=O)O
property_label: Papp A→B at 120 min, 50 μM
Value and unit, in that order.

molecule | reported
CC(C)NCC(O)COc1cccc2ccccc12 (centres unmarked) [Propanolol, reference compound] | 31.1 ×10⁻⁶ cm/s

Now consider the entry below.
Kindly note the recorded Papp A→B at 120 min, 50 μM for CC(=O)N[C@@H](Cc1ccccc1)C(=O)N[C@H]1CCCNC(=O)[C@H](Cc2ccccc2)NC(=O)[C@H](Cc2c[nH]c3ccccc23)NC(=O)[C@@H](CC2CCCCC2)NC(=O)[C@@H]2C[C@@H](O)CN2C1=O [Compound 2, Ac-Phe-[Orn-Hyp-cha-Trp-Phe]] (Ac-F[Orn][Hyp][dCha]WF; lactam 2-C) , which is 14.3 ×10⁻⁶ cm/s
